B1: FOXJ1 (parent)
chain: SAIYKWITDNFCYFRHADPTWQNS

variants of: B1; assay: protein stability index of a GFP-peptide fusion (GPS, HEK-293T) (PSI 1-6); higher = more stable; conditions: c terminus: a fixed tail appended;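 note: lentivirally expressed fusions sorted by FACS into six bins by GFP to DsRed ratio, PSI derived from sequencing read proportions per bin multiplied by bin number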
Note that class boundaries on protein stability index are band 1: < 2; band 2: ≥ 2 and < 3; band 3: ≥ 3

Known results for variants:
SAIYPWITDNFCYFRHADPTWQNS [K5P]: band 1
SAIYKWITDNFCYFRHADPTWNNS [Q22N]: band 3
SAIYKWITDNFDYFRHADPTWQNS [C12D]: band 1
SAIYKWIQDNFCYFRHADPTWQNS [T8Q]: band 2

Problem: Returns: class label. Input: SAIYKWITDHFCYFRHADPTWQNS [N10H]
Result: band 2

Problem: Returns: class label. Input: SAIYKWITDNFFYFRHADPTWQNS [C12F]
Result: band 2

Problem: Returns: class label. Input: SAIYKWITDNFCYVRHADPTWQNS [F14V]
Result: band 3

Problem: Returns: class label. Input: SAIYKWQTDNFCYFRHADPTWQNS [I7Q]
Result: band 1

Problem: Returns: class label. Input: SAIYKWITDNFCYFRHTDPTWQNS [A17T]
Result: band 2
